Molecular target: USP28 (Homo sapiens, UniProt Q96RU2)
Construct: purchased R&D Systems
Sequence (Q96RU2 whole entry): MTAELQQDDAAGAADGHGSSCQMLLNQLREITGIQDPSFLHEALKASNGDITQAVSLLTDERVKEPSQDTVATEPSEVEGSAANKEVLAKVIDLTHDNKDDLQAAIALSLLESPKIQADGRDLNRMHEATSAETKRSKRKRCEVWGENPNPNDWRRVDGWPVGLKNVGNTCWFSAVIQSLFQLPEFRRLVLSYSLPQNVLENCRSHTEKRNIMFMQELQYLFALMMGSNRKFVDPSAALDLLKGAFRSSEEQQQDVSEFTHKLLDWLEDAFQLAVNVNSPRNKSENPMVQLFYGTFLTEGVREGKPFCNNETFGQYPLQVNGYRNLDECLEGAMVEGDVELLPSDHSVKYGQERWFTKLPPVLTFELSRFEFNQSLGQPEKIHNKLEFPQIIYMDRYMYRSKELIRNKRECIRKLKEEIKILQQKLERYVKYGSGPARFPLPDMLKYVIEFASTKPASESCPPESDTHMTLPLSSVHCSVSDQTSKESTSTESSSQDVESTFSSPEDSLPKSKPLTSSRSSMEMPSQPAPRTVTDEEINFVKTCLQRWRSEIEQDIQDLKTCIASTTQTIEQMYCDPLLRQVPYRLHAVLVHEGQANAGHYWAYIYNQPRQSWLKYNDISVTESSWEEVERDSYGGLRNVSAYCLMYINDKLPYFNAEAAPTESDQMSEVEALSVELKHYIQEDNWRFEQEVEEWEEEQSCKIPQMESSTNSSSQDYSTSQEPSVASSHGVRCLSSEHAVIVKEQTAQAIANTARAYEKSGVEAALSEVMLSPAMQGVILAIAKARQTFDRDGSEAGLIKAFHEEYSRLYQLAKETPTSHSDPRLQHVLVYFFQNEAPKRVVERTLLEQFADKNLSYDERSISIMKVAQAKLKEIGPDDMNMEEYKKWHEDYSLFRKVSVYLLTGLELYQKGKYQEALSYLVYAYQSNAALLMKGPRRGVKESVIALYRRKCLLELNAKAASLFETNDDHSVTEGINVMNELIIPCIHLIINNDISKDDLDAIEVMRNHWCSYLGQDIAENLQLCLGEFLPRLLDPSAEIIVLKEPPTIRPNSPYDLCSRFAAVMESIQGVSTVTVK
Assay: USP28 activity measured using ubiquitin-rhodamine 110 method
Assay type: biochemical
Conditions: purified USP28 4 nM, ubiquitin-rhodamine 110 125 nM, 30 min preincubation; read-out: Inhibitory activity against USP28 (IC50)
pIC50: −log10 of the molar value.
Parameter pIC50: see the listing below.

Observe how each entry below is paired with its result.
{"columns": ["Compound", "Endpoint value"],
 "data": [
  ["CNc1c(C(=O)NC[C@@H](C)c2ccc(N3C[C@H]4CC[C@@H](C3)N4)cc2)sc2nc(C)ccc12 [Compound I-68]", "6.00 to 7.00"],
  ["CNc1c(C(=O)NCCc2ccc(N3C[C@H]4CC[C@@H](C3)N4)cc2)sc2nc(OC)ccc12 [Compound I-17]", "6.00 to 7.00"],
  ["CCCc1ccc2c(NC)c(C(=O)NCCc3c[nH]c4ccccc34)sc2n1 [Compound I-51]", "> 7.00"],
  ["CNc1c(C(=O)NCCc2ccc(N3C[C@H]4CC[C@@H](C3)N4)cc2)sc2nc(C)c(C)cc12 [Compound I-30]", "6.00 to 7.00"]
]}

Let us move to another entry and its pIC50.
compound CNc1c(C(=O)NCCc2ccc(N3C[C@H]4CC[C@@H](C3)N4)cc2)sc2nc(N)ccc12 [Compound I-93] , pIC50 observed: 6.00 to 7.00
